Data origin: ChEMBL document CHEMBL3217690

# study_target: Epidermal growth factor receptor (Homo sapiens, UniProt P00533)
# Sequence (P00533 whole entry): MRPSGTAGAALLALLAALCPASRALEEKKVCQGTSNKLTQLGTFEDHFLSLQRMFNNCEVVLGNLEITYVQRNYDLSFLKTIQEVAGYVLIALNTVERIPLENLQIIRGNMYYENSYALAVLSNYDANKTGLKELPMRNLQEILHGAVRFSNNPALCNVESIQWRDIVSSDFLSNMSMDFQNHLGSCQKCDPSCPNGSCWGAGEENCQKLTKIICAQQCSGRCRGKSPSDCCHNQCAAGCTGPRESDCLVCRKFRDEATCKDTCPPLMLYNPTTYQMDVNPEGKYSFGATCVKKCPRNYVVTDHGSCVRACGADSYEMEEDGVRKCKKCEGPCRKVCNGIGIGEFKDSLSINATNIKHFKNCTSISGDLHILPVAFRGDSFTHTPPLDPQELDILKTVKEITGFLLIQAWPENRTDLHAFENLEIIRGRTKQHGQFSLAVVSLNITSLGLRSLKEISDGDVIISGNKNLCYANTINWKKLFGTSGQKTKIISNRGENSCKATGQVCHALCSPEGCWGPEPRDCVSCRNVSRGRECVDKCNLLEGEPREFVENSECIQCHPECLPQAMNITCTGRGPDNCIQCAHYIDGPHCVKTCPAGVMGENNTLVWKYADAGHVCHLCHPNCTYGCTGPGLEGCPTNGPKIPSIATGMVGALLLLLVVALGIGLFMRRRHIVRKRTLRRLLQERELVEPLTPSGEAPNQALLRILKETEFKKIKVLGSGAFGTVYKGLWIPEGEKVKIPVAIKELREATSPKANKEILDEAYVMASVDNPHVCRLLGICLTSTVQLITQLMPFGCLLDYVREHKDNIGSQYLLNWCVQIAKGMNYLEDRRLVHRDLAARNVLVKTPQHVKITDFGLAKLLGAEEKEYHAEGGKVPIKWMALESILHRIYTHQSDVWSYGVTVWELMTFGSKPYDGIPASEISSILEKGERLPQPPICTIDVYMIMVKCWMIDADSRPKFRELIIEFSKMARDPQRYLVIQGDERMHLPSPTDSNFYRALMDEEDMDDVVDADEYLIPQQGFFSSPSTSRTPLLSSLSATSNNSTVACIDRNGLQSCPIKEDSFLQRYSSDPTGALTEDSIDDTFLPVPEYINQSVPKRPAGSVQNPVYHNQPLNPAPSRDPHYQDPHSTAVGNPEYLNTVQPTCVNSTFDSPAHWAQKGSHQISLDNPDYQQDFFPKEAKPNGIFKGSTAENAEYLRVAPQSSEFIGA
# experiment: Inhibition of EGF-induced EGFR-mediated Akt phosphorylation in human A431 cells after 1 hr by immunoblotting method
# Assay type: cell-based, A-431
pIC50: −log10 of the molar value.
measured_attribute: pIC50

{"columns": ["structure_notation", "pIC50"],
 "data": [
  ["C=CC(=O)Nc1cccc(Nc2cc(Nc3cccc(Br)c3)ncn2)c1", 6.98],
  ["CCC(=O)Nc1cccc(Nc2cc(Nc3cccc(Br)c3)ncn2)c1", 6.87]
]}

====

# study_target: Epidermal growth factor receptor (Homo sapiens, UniProt P00533)
# experiment: Inhibition of EGF-induced EGFR-mediated pS6 phosphorylation in human A431 cells after 1 hr by immunoblotting method
# Type: cell-based, A-431
measured_attribute: IC50 (nM)

[1] CCC(=O)Nc1cccc(Nc2cc(Nc3cccc(Br)c3)ncn2)c1
[2] C=CC(=O)Nc1cccc(Nc2cc(Nc3cccc(Br)c3)ncn2)c1
Compare 1 and 2 and name the one whose reported IC50 is smaller. Selection: enter the item's label.
1

====

# study_target: Epidermal growth factor receptor (Homo sapiens, UniProt P00533, L858R/T790M)
# Sequence (P00533 25-1210 T790M/L858R limits assumed): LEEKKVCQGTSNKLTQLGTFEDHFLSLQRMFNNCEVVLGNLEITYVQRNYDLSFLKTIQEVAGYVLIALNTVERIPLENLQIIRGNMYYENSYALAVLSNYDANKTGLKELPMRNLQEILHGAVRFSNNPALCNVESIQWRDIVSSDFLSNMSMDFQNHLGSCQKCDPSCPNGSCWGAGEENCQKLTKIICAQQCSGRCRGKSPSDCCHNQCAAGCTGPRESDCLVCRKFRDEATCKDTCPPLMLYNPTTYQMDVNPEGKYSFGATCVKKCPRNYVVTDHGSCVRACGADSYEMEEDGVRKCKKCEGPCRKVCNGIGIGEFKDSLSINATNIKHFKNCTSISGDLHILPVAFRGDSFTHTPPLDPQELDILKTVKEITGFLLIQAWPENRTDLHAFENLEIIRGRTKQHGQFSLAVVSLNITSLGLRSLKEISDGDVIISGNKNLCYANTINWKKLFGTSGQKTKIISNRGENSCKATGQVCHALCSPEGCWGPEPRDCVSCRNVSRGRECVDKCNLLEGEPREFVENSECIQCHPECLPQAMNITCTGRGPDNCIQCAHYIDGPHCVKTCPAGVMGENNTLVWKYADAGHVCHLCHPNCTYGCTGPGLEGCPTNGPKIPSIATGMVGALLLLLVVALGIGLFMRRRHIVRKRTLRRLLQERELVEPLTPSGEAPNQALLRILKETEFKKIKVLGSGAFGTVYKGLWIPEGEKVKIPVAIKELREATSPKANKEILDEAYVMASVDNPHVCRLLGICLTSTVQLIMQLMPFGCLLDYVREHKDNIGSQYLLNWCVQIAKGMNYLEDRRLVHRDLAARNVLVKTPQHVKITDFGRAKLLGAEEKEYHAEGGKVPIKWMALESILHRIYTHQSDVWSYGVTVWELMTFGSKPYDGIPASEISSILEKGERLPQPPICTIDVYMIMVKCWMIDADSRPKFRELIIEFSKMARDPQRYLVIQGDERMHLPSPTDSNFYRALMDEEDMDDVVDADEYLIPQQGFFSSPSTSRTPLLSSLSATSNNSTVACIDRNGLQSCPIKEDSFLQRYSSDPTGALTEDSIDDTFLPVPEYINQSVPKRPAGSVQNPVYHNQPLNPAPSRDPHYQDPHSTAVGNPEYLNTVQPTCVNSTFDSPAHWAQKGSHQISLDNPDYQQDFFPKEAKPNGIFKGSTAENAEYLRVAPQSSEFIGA
# experiment: Inhibition of EGF-induced EGFR L858R/T790M mutant autophosphorylation in human […] cells after 1 hr by immunoblotting method
# Type: cell-based
measured_attribute: pEC50
Keep it numeric: pEC50 is minus log10 of the concentration in mol/L.

Field request: pEC50 | item: `C=CC(=O)Nc1cccc(Nc2cc(Nc3cccc(Br)c3)ncn2)c1`
6.36

====

# study_target: Epidermal growth factor receptor (Homo sapiens, UniProt P00533, L858R/T790M)
# experiment: Inhibition of EGF-induced EGFR L858R/T790M mutant-mediated Akt phosphorylation in human […] cells after 1 hr by immunoblotting method
# Type: cell-based
measured_attribute: pEC50
Keep it numeric: pEC50 is minus log10 of the concentration in mol/L.

Field request: pEC50 | item: `C=CC(=O)Nc1cccc(Nc2cc(Nc3cccc(Br)c3)ncn2)c1`
6.78

====

# study_target: Epidermal growth factor receptor (Homo sapiens, UniProt P00533)
# experiment: Inhibition of wild type EGFR (unknown origin) using Y12-Sox peptide as substrate preincubated for 30 mins by fluorescence assay
Quick reference for IC50 among some compounds

{"columns": ["structure_notation", "measured_attribute", "observed_value"],
 "data": [
  ["CCC(=O)Nc1cccc(Nc2cc(Nc3cccc(Br)c3)ncn2)c1", "IC50", "< 1 nM"]
]}

Field request: IC50 | item: `C=CC(=O)Nc1cccc(Nc2cc(Nc3cccc(Br)c3)ncn2)c1`
< 1 nM

====

Quick reference for EC50 among some compounds
# experiment: Inhibition of EGF-induced EGFR E746 to E750 deletion mutant-mediated Akt phosphorylation in human HCC827 cells after 1 hr by immunoblotting method
# Format: cell-based
# applied_conditions: HCC827, 1 h

{"columns": ["structure_notation", "observed_value"],
 "data": [
  ["CCC(=O)Nc1cccc(Nc2cc(Nc3cccc(Br)c3)ncn2)c1", "< 20 nM"]
]}

From here, focus on the item given below.
Field request: EC50 | item: `C=CC(=O)Nc1cccc(Nc2cc(Nc3cccc(Br)c3)ncn2)c1`
< 20 nM
